# target-desc: pig gastric H^+,K^+-ATPase (Sus scrofa)
# Construct: tubulovesicular and apical membranes, isolated from freshly slaughtered pig gastric mucosa
# Sequence (P19156 2-1034 limits assumed): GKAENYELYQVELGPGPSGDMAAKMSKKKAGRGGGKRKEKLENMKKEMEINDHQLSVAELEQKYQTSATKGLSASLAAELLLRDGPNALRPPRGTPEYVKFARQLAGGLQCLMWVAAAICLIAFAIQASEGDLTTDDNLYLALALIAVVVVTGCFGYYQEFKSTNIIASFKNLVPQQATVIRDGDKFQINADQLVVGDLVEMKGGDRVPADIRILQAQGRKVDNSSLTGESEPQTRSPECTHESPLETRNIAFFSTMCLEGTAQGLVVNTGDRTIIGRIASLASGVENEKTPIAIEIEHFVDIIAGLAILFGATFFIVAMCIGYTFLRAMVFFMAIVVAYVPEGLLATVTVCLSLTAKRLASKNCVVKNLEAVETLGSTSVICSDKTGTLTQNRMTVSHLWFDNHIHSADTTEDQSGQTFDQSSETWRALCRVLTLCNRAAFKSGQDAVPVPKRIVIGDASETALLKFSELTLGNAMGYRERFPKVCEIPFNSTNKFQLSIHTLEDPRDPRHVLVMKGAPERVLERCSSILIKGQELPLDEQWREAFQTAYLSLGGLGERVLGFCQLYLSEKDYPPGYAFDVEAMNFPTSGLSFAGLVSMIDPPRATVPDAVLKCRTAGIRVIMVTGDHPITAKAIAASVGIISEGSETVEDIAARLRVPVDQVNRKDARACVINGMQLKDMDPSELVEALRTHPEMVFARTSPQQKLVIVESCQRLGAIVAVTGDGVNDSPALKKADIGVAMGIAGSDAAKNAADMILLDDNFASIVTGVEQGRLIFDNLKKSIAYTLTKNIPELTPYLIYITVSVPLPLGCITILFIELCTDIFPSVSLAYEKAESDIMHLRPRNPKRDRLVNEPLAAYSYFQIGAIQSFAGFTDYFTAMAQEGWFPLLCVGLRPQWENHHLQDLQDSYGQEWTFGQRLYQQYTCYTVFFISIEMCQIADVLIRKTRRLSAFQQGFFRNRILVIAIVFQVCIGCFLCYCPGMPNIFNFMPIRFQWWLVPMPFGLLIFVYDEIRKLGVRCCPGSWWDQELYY
# Sequence (P18434 whole entry partner): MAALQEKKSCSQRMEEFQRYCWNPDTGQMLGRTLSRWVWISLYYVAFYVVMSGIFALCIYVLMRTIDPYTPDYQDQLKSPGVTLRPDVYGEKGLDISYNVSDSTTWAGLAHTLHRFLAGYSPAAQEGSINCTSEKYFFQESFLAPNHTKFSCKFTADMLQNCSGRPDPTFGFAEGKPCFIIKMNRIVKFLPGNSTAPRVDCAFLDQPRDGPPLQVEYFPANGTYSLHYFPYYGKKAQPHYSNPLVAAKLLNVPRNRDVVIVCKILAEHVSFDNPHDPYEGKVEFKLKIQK
# method-summary: Gastric H+,K+-ATPase activity assay
measured-property: pIC50
Lab note — pIC50 values are minus log10 of concentrations in M.

# input // query pIC50 value for entry O=c1cc(-c2ccccc2)oc2cc(OCCCCCCN3CCCCC3)cc(O)c12
# output 4.62

###

# System: H. pylori
# method-summary: Acid stability study (pH ~2.0, 2 h, then MIC/MBC by microbroth dilution)
# Type: cell-based, Helicobacter pylori
# measurement-context: Helicobacter pylori, 2 h, pH ~2.0, 2 h, 25° C.; 43504; read-out: MBC, Acid treated
In this section, each of the molecules is paired with its reported MBC.

The following molecules have reported results that may help.
>>> print(df.to_string())
                              record_smiles  target_desc  measured_property      result
0  CN1CCN(CCCCCCOc2cc(O)c3c(=O)cc(-c4ccccc4)oc3c2)CC1    H. pylori                MBC  < 25 mg/mL
1  CN1CCN(CCCOc2cc(O)c3c(=O)cc(-c4ccccc4)oc3c2)CC1    H. pylori                MBC  < 50 mg/mL

# input // query MBC value for entry O=c1cc(-c2ccccc2)oc2cc(OCCCCN3CCCCC3)cc(O)c12
# output < 50 mg/mL

# input Field entry: O=c1cc(-c2ccccc2)oc2cc(OCCCCCCN3CCCCC3)cc(O)c12
# output 25 mg/mL
